- experiment_description: Toxicity (LD50), mice, orally
- assay_context: mouse, in vivo, po
quantity_kind: LD50 (mg/kg)
Please reply with the bare figure in mg/kg and do not write the unit itself.

GET /values?readout=LD50&item= CCC(C(=O)O)C1CCC(C)C(C(C)C(O)C(C)C(=O)C(CC)C2OC3(C=CCC4(CCC(C)(C5CCC(O)(CC)C(C)O5)O4)O3)C(C)CC2C)O1 (stereo not shown) [SY-1 substance] 51

Source of measurements: patent US4138496A
